Parameter: IC50. Scope: all listed entries.
measured-target: human MRGPRX2 (Homo sapiens)
assay-details: MRGPRX2 Activity Assay (IP-1 HTRF, antagonist mode)
test-settings: FlpIn TRex-MRGPRX2-HEK293 cells; versus 1 μM Cortistatin-14 agonist; 30 minutes preincubation
# number only, unit nM dropped from output

# compound, display-unit, IC50
rows = [
    ("Cc1nc(NC(=O)[C@@H](C)N2CCC(F)(F)[C@@H](c3cc[n+]([O-])cc3)C2)cn1Cc1cc(F)cc(F)c1 (single isomer, unassigned)", "nM", 193),
]

### Prompt What value of IC50 has been recorded for this entry: C[C@@H](C(=O)Nc1cn2c(n1)CC[C@@H]2c1cc(F)cc(F)c1)N1CCC(F)(F)[C@H](c2c[nH]c(=O)c(CO)c2)C1 (single isomer, unassigned)
### Response 50

====

measured-target: human MRGPRX2 (Homo sapiens, UniProt Q96LB1)
Sequence (Q96LB1 whole entry): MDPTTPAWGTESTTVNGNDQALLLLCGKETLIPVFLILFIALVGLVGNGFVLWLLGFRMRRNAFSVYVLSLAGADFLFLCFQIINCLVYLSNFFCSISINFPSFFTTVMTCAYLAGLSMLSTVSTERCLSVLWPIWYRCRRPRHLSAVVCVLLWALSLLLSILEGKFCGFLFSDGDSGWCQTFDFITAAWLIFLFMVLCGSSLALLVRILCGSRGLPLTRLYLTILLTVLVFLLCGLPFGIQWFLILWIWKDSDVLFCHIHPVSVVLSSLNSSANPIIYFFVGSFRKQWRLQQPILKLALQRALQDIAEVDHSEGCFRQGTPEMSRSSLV
assay-details: MRGPRX2 Activity Assay (IP-1 HTRF, antagonist mode)
test-settings: FlpIn TRex-MRGPRX2-HEK293 cells; versus 1 μM Cortistatin-14 agonist; 30 minutes preincubation
pIC50: −log10 of the molar value.
metric-name: pIC50

# compound, pIC50
rows = [
    ("C[C@@H](C(=O)Nc1cn(Cc2cc(F)cc(F)c2)cn1)N1CCC(F)(F)[C@H](c2ccc(=O)n(C)c2)C1 (single isomer, unassigned)", "< 4.52"),
    ("C[C@@H](C(=O)Nc1cn(Cc2cccc(Cl)c2Cl)cn1)N1CCC(F)(F)[C@@H](c2cc[n+]([O-])cc2)C1", 7.15),
    ("C[C@@H](C(=O)Nc1nc(Cc2cc(F)cc(F)c2)no1)N1CCC(F)(F)[C@@H](c2cc[n+]([O-])cc2)C1 (single isomer, unassigned)", "< 5.00"),
    ("C[C@@H](C(=O)Nc1cn2c(n1)CC[C@@H]2c1cc(F)cc(F)c1)N1CCOCC1 (single isomer, unassigned)", "< 4.52"),
]

### Prompt What value of pIC50 has been recorded for this entry: C[C@H](C(=O)Nc1cn(Cc2cc(F)cc(F)c2)cn1)N1CCC(F)(F)[C@H](c2c[nH]c(=O)c(CO)c2)C1 (single isomer, unassigned)
### Response < 4.52

### Prompt What value of pIC50 has been recorded for this entry: C[C@H](C(=O)Nc1coc(Cc2cc(F)cc(F)c2)n1)N1CCC(F)(F)[C@@H](c2cc[n+]([O-])cc2)C1 (single isomer, unassigned)
### Response 8.68

====

measured-target: human MRGPRX2 (Homo sapiens)
assay-details: MRGPRX2 Activity Assay (IP-1 HTRF, antagonist mode)
test-settings: FlpIn TRex-MRGPRX2-HEK293 cells; versus 1 μM Cortistatin-14 agonist; 30 minutes preincubation
pIC50: −log10 of the molar value.
pIC50 vs 7: at or above is 1.0, below is 0.0.

# compound, measured-target, label-value
data = [
    ("C[C@@H](C(=O)Nc1cn(Cc2cc(F)c(F)cc2F)cn1)N1CCC(F)(F)[C@@H](c2cc[n+]([O-])cc2)C1", "human MRGPRX2 (Homo sapiens)", 0.0),
    ("Cc1nc(NC(=O)[C@@H](C)N2CCC(F)(F)[C@@H](c3cc[n+]([O-])cc3)C2)cn1Cc1ccc(F)cc1F (single isomer, unassigned)", "human MRGPRX2 (Homo sapiens)", 0.0),
    ("C[C@@H](C(=O)Nc1cn(Cc2cc(F)ccc2C(F)(F)F)cn1)N1CCC(F)(F)[C@@H](c2cc[n+]([O-])cc2)C1", "human MRGPRX2 (Homo sapiens)", 0.0),
]

### Prompt Is the recorded value of pIC50 equal to or greater than 7 for this compound? C[C@H](c1cc(F)cc(F)c1)n1cnc(NC(=O)[C@H](C)N2CCC(F)(F)[C@@H](c3cc[n+]([O-])cc3)C2)c1 (single isomer, unassigned)
### Response 0.0

### Prompt Is the recorded value of pIC50 equal to or greater than 7 for this compound? C[C@@H](C(=O)Nc1cn(Cc2ccc(F)c(F)c2F)cn1)N1CCC(F)(F)[C@@H](c2cc[n+]([O-])cc2)C1
### Response 0.0

### Prompt Is the recorded value of pIC50 equal to or greater than 7 for this compound? C[C@H](C(=O)Nc1cn(Cc2cc(F)cc(F)c2)c(C(F)(F)F)n1)N1CCC(F)(F)[C@H](c2ccc(=O)[nH]c2)C1 (single isomer, unassigned)
### Response 1.0

### Prompt Is the recorded value of pIC50 equal to or greater than 7 for this compound? Cc1nc(NC(=O)[C@H](C)N2CCC(F)(F)[C@@H](c3cc[n+]([O-])cc3)C2)cn1Cc1ccc(F)cc1F (single isomer, unassigned)
### Response 1.0

### Prompt Is the recorded value of pIC50 equal to or greater than 7 for this compound? C[C@@H](C(=O)Nc1cn2c(n1)CC[C@H]2c1cc(F)cc(F)c1)N1CCC(F)(F)[C@H](c2ccc(=O)[nH]c2)C1 (single isomer, unassigned)
### Response 0.0

====

measured-target: human MRGPRX2 (Homo sapiens)
assay-details: MRGPRX2 Activity Assay (IP-1 HTRF, antagonist mode)
test-settings: FlpIn TRex-MRGPRX2-HEK293 cells; versus 1 μM Cortistatin-14 agonist; 30 minutes preincubation
Method: FlpIn TRex-MRGPRX2-HEK293 cells (herein TRex-MRPGRX2-HEK) stably transfected to express human MRGPRX2 were maintained at 37° C. with 5% CO2 and grown in DMEM supplemented with 10% FBS, 1% L-Glutamate, 1% penicillin/streptomycin, 100 ug/mL Hygromycin B, and 15 ug/mL Blasticidin. […] Antagonist equilibrium was established with 30 minutes preincubation, followed by no wash, direct addition, and stimulation of agonist for 1 hour at 37° C./5% CO2. […] The plate was read on an EnVision XCite plate reader. […]
metric-name: IC50 (nM)
# number only, unit nM dropped from output

Example molecules with recorded IC50:
# molecule, display-unit, IC50
data = [
    ("C[C@H](C(=O)Nc1cn(Cc2cc(F)cc(F)c2)cn1)N1CCC(F)(F)[C@@H](c2c[nH]c(=O)c(CO)c2)C1 (single isomer, unassigned)", "nM", 12),
    ("C[C@@H](C(=O)Nc1cn(Cc2ccc(F)cc2F)cn1)N1CCC(F)(F)[C@@H](c2cc[n+]([O-])cc2)C1 (single isomer, unassigned)", "nM", 58),
]

### Prompt What value of IC50 has been recorded for this entry: C[C@@H](C(=O)Nc1cc2n(n1)CC[C@@H]2c1cc(F)cc(F)c1)N1CCC(F)(F)[C@@H](c2cc[n+]([O-])cc2)C1 (single isomer, unassigned)
### Response 439

====

measured-target: human MRGPRX2 (Homo sapiens, UniProt Q96LB1)
assay-details: MRGPRX2 Activity Assay (IP-1 HTRF, antagonist mode)
test-settings: FlpIn TRex-MRGPRX2-HEK293 cells; versus 1 μM Cortistatin-14 agonist; 30 minutes preincubation
metric-name: pIC50
Give only the number. pIC50 is defined as minus log10 of concentration in molar units.

### Prompt What value of pIC50 has been recorded for this entry: C[C@@H](C(=O)Nc1cn(Cc2ccc(F)cc2Cl)cn1)N1CCC(F)(F)[C@@H](c2cc[n+]([O-])cc2)C1
### Response 6.67

### Prompt What value of pIC50 has been recorded for this entry: C[C@@H](C(=O)Nc1cn(Cc2ccc(F)cc2F)c(C(F)(F)F)n1)N1CCC(F)(F)[C@@H](c2cc[n+]([O-])cc2)C1 (single isomer, unassigned)
### Response 7.35

### Prompt What value of pIC50 has been recorded for this entry: C[C@@H](C(=O)Nc1cn(Cc2cc(F)c(F)c(F)c2)cn1)N1CCC(F)(F)[C@@H](c2cc[n+]([O-])cc2)C1
### Response 7.96

### Prompt What value of pIC50 has been recorded for this entry: C[C@@H](C(=O)Nc1cn(Cc2cccc(F)c2Cl)cn1)N1CCC(F)(F)[C@@H](c2cc[n+]([O-])cc2)C1
### Response 7.47

====

measured-target: human MRGPRX2 (Homo sapiens, UniProt Q96LB1)
assay-details: MRGPRX2 Activity Assay (IP-1 HTRF, antagonist mode)
test-settings: FlpIn TRex-MRGPRX2-HEK293 cells; versus 1 μM Cortistatin-14 agonist; 30 minutes preincubation
Parameter: pIC50. Scope: all listed entries.
Give only the number. pIC50 is defined as minus log10 of concentration in molar units.

# molecule, reported-result
measured = [
    ("C[C@@H](C(=O)Nc1cn(Cc2cc(F)cc(F)c2)cn1)N1CCC(F)(F)[C@@H](c2ccc(=O)n(C)c2)C1 (single isomer, unassigned)", 5.36),
    ("C[C@@H](C(=O)Nc1cn(Cc2cc(F)cc(F)c2)cn1)N1CCC(F)(F)[C@@H](c2c[nH]c(=O)c(CO)c2)C1 (single isomer, unassigned)", 5.63),
    ("C[C@@H](C(=O)Nc1cn2c(n1)CC[C@@H]2c1cc(F)cc(F)c1)N1CCC(F)(F)[C@@H](c2c[nH]c(=O)cn2)C1 (single isomer, unassigned)", 6.99),
    ("C[C@H](C(=O)Nc1cn(Cc2cc(F)cc(F)c2)cn1)N1CCC(F)(F)[C@@H](c2ccc(=O)n(C)c2)C1 (single isomer, unassigned)", 7.64),
]

### Prompt What value of pIC50 has been recorded for this entry: C[C@@H](C(=O)Nc1cn(Cc2cc(F)ccc2F)cn1)N1CCC(F)(F)[C@@H](c2cc[n+]([O-])cc2)C1
### Response 7.60
